System: Enterococcus faecalis
procedure_text: Antibacterial activity against Enterococcus faecalis at MIC after 48 hrs by disc diffusion assay
Type: functional
Activity calls are given as the source filed them. No cut-off for these calls is given here.
measure: Activity

>>> result("COc1cc(C)ccc1C(C)C")
"inactive"
>>> result("Cc1c(Cl)cc(C(C)C)c(O)c1Cl")
"inactive"
>>> result("COc1cc(C)c(I)cc1C(C)C")
"inactive"
>>> result("COc1c(C(C)C)ccc(C)c1Br")
"inactive"
>>> result("Cc1c(Cl)cc(C(C)C)c(O)c1Br")
"inactive"

###

Test system: Candida albicans
procedure_text: Antifungal activity against Candida albicans CN at MIC after 7 to 10 days by disc diffusion assay
Assay type: functional
Active and inactive are the calls of the source. The rule behind the calls is not given here.
measure: Activity

>>> result("Cc1c(Cl)cc(C(C)C)c(O)c1Cl")
"inactive"
>>> result("Cc1c(Br)cc(C(C)C)c(O)c1Br")
"inactive"
>>> result("COc1cc(C)c(I)cc1C(C)C")
"inactive"
>>> result("Cc1c(Cl)cc(C(C)C)c(O)c1Br")
"inactive"
>>> result("COc1c(C(C)C)ccc(C)c1Br")
"inactive"
>>> result("COc1cc(C)ccc1C(C)C")
"inactive"
>>> result("Cc1ccc(C(C)C)c(O)c1Br")
"inactive"

###

Test system: Staphylococcus epidermidis
procedure_text: Antibacterial activity against Staphylococcus epidermidis at MIC after 48 hrs by disc diffusion assay
Type: functional
Recorded inhibition zone (IZ), one value per entry.
measure: inhibition zone (IZ) (mm)

>>> recorded_number("Cc1c(Br)cc(C(C)C)c(O)c1Br")
16
>>> recorded_number("CN[C@@H]1[C@H](O[C@H]2[C@H](O[C@H]3[C@H](O)[C@@H](O)[C@H](N=C(N)N)[C@@H](O)[C@@H]3N=C(N)N)O[C@@H](C)[C@]2(O)C=O)O[C@@H](CO)[C@H](O)[C@H]1O [STREPTOMYCIN]")
9
>>> recorded_number("Cc1ccc(C(C)C)c(O)c1 [THYMOL]")
18
>>> recorded_number("Cc1cc(O)c(C(C)C)cc1Cl [CHLOROTHYMOL]")
6

###

Test system: Staphylococcus epidermidis
procedure_text: Antibacterial activity against Staphylococcus epidermidis by two-fold serial dilution assay
Assay type: functional
measure: MIC (µg/mL)

>>> recorded_number("Cc1c(Br)cc(C(C)C)c(O)c1Br")
1000
>>> recorded_number("Cc1ccc(C(C)C)c(O)c1 [THYMOL]")
32.2
>>> recorded_number("CN[C@@H]1[C@H](O[C@H]2[C@H](O[C@H]3[C@H](O)[C@@H](O)[C@H](N=C(N)N)[C@@H](O)[C@@H]3N=C(N)N)O[C@@H](C)[C@]2(O)C=O)O[C@@H](CO)[C@H](O)[C@H]1O [STREPTOMYCIN]")
6.35
>>> recorded_number("Cc1cc(O)c(C(C)C)cc1Cl [CHLOROTHYMOL]")
25
